# systemUnderTest: IDH1 (Homo sapiens)
# Sequence (O75874 whole entry): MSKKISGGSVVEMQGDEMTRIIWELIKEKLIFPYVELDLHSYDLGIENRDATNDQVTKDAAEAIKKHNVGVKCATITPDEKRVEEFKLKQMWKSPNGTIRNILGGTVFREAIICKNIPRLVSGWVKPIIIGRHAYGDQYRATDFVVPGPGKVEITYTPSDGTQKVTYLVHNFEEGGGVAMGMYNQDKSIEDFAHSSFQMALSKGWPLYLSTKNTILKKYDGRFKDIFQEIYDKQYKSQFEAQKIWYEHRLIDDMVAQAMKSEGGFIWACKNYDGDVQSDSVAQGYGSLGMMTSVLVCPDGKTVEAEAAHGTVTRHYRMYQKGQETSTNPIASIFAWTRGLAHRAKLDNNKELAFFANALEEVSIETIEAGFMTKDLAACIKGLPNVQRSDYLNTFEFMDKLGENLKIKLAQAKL
# assaySummary: IC50 dose-response curve fits (Example 1, assay not described)
# Format: biochemical
# conditionNotes: curve-fit parameter
Assign Slope to each entry below.
Numbers only.

COc1cccc(NC(=O)c2nn(Cc3ccc(C(F)(F)F)cc3)c3c2CN(C(=O)c2cccs2)CC3(C)C)c1	1.0

State recorded Slope for all listed molecules.
1. CC1(C)CN(C(=O)c2cn[nH]c2)Cc2c(C(=O)Nc3cccc(F)c3)nn(Cc3ccc(C(F)(F)F)cc3)c21
2. CC(O)c1cccc(NC(=O)c2nn(Cc3ccc(C(F)(F)F)cc3)c3c2CN(C(=O)c2cn[nH]c2)CC3(C)C)c1 (stereo not shown)
3. C[C@@H]1CN(C(=O)c2ccc[nH]2)Cc2c(C(=O)Nc3cccc([C@@H](C)O)c3)nn(Cc3ccc(F)cc3)c21 [FSM-206, reference compound]
4. COc1ccc(NC(=O)c2nn(Cc3ccc(C(F)(F)F)cc3)c3c2CN(C(=O)c2cccs2)CC3(C)C)cc1
5. COc1cccc(NC(=O)c2nn(Cc3ccc(C(F)(F)F)cc3)c3c2CN(C(=O)c2ccc[nH]2)CC3(C)C)c1
6. COc1ccc(NC(=O)c2nn(Cc3ccc(C(F)(F)F)cc3)c3c2CN(C(=O)c2ccc[nH]2)CC3(C)C)cc1

Reply:
1: 1.0; 2: 1.0; 3: 1.0; 4: 1.4; 5: 1.0; 6: 1.3

====

# systemUnderTest: IDH1 (Homo sapiens)
# assaySummary: IC50 dose-response curve fits (Example 1, assay not described)
# Type: biochemical
# conditionNotes: curve-fit parameter
Assign Top to each entry below.

CC(O)c1cccc(NC(=O)c2nn(Cc3ccc(C(F)(F)F)cc3)c3c2CN(C(=O)c2cn[nH]c2)CC3(C)C)c1 (stereo not shown)	97.9
COc1ccc(NC(=O)c2nn(Cc3ccc(C(F)(F)F)cc3)c3c2CN(C(=O)c2cccs2)CC3(C)C)cc1	98.9
COc1cccc(NC(=O)c2nn(Cc3ccc(C(F)(F)F)cc3)c3c2CN(C(=O)c2cccs2)CC3(C)C)c1	98.0
COc1ccc(NC(=O)c2nn(Cc3ccc(C(F)(F)F)cc3)c3c2CN(C(=O)c2ccc[nH]2)CC3(C)C)cc1	99.1
CC1(C)CN(C(=O)c2cn[nH]c2)Cc2c(C(=O)Nc3cccc(F)c3)nn(Cc3ccc(C(F)(F)F)cc3)c21	95.0
C[C@@H]1CN(C(=O)c2ccc[nH]2)Cc2c(C(=O)Nc3cccc([C@@H](C)O)c3)nn(Cc3ccc(F)cc3)c21 [FSM-206, reference compound]	98.0

Task item: Return the recorded Top value; entry: COc1cccc(NC(=O)c2nn(Cc3ccc(C(F)(F)F)cc3)c3c2CN(C(=O)c2ccc[nH]2)CC3(C)C)c1
Reply: 99.3

====

# systemUnderTest: IDH1 (Homo sapiens)
# assaySummary: IC50 in two trials and mean (Example 1, assay not described)
# Assay type: biochemical
# conditionNotes: mean of the trials; read-out: Mean IC50
Assign IC50 to each entry below.
Returns: string containing the number followed by the unit.

CC1(C)CN(C(=O)c2ccc[nH]2)Cc2c(C(=O)Nc3ncco3)nn(Cc3ccc(F)cc3)c21 [FSM-2-113]	1160 nM

State recorded IC50 for all listed compounds.
1. CC1(C)CN(C(=O)c2ccc[nH]2)Cc2c(C(=O)Nc3cccc(C(=O)O)c3)nn(Cc3ccc(F)cc3)c21 [FSM-2-97]
2. CC1(C)CN(C(=O)c2cccs2)Cc2c(C(=O)Nc3cccc(C(=O)NC4CCCC4)c3)nn(Cc3ccc(F)cc3)c21 [IAP-1-35]
3. CC1(C)CN(C(=O)c2cccs2)Cc2c(C(=O)Nc3ncco3)nn(Cc3ccc(F)cc3)c21 [FSM-2-114]
4. CC1(C)CN(C(=O)c2ccc[nH]2)Cc2c(C(=O)Nc3cccc(C(=O)NC4CCCC4)c3)nn(Cc3ccc(F)cc3)c21 [IAP-1-34]
5. CC1(C)CN(C(=O)c2cccs2)Cc2c(C(=O)Nc3cccc(C(=O)O)c3)nn(Cc3ccc(F)cc3)c21 [FSM-2-98]
6. Cc1c[nH]c(C(=O)N2Cc3c(C(=O)Nc4cccc(C(C)O)c4)nn(Cc4ccc(F)cc4)c3C(C)(C)C2)c1 (stereo not shown) [IAP-1-40]

Reply:
["7830 nM", "69 nM", "1300 nM", "91 nM", "5630 nM", "497 nM"]
